Tested on: OCI-Ly3
Test: Cytotoxicity against human OCILY3 cells incubated for 5 days by MTT assay
Assay type: functional, cell-based
Settings: OCI-Ly3, 120 h

[
  {
    "molecule": "COc1cccc2c1OCC(C(=O)Nc1ccc3c(c1)CN(C1CCC(=O)NC1=O)C3=O)=C2 (stereo unspecified)",
    "EC50 [nM]": 14
  }
]

* * *

Molecular target: Cereblon/Casein kinase I alpha (Homo sapiens) (UniProt P48729+Q96SW2)
Sequence (P48729 2-337 limits assumed): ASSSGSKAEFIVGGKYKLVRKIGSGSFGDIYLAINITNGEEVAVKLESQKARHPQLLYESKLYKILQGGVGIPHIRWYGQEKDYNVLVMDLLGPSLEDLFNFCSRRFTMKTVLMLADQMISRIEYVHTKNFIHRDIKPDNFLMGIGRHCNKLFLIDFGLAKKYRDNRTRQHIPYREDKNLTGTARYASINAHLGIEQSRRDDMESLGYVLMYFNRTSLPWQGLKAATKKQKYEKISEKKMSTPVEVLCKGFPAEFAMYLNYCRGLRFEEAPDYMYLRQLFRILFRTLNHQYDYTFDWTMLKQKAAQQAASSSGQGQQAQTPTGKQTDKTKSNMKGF
Sequence (Q96SW2 whole entry partner): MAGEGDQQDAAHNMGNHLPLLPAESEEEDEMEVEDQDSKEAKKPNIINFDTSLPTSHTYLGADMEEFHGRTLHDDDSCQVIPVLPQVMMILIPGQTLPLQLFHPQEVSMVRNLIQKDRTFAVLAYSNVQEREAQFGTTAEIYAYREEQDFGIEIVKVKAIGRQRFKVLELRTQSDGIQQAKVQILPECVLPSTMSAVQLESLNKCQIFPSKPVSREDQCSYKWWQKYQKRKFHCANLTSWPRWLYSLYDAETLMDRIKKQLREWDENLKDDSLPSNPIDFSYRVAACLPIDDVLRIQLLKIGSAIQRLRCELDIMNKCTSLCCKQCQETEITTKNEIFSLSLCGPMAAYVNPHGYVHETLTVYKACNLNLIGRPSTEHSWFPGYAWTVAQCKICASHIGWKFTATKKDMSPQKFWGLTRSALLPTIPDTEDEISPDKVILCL
Experiment: Protac activity at CRBN/CK1alpha (unknown origin) transfected in HEK293T cells at 100 nM incubated for 24 hrs by flow cytometry analysis relative to control
Type: cell-based
Quick list: Activity per entry.

[
  {
    "compound": "Cc1ccc2c(c1)OCC(C(=O)Nc1ccc3c(c1)CN(C1CCC(=O)NC1=O)C3=O)=C2 (stereo not given)",
    "Activity [%]": 64
  },
  {
    "compound": "O=C1CCC(N2Cc3cc(NC(=O)c4ccc5c(c4)OCO5)ccc3C2=O)C(=O)N1 (stereo not given)",
    "Activity [%]": 36
  },
  {
    "compound": "CCCCOc1ccc2cc(C(=O)Nc3ccc4c(c3)CN(C3CCC(=O)NC3=O)C4=O)ccc2c1 (stereo not given)",
    "Activity [%]": 70
  },
  {
    "compound": "COc1ccc2cc(C(=O)Nc3ccc4c(c3)CN(C3CCC(=O)NC3=O)C4=O)ccc2n1 (stereo not given)",
    "Activity [%]": 68
  },
  {
    "compound": "O=C1CCC(N2Cc3cc(NC(=O)c4cccc(Oc5ccccc5)c4)ccc3C2=O)C(=O)N1 (stereo not given)",
    "Activity [%]": 58
  }
]

* * *

Target: Cereblon/Ikaros (Homo sapiens) (UniProt Q96SW2+Q13422)
Experiment: Protac activity at CRBN/IKZF1 in human MOLM-13 cells at 25 uM incubated for 24 hrs by Western blotting analysis relative to control
Type: cell-based
Activity calls are given as the source filed them. The calls are words filed in the database; no cut-off is given here.
Possible outcomes: active, inactive

[
  {
    "compound": "COc1ccc2cc(CNc3ccc4c(c3)CN(C3CCC(=O)NC3=O)C4=O)ccc2c1 (stereo unspecified)",
    "group": "active"
  },
  {
    "compound": "O=C1CCC(N2Cc3cc(NCCc4ccc5ccccc5c4)ccc3C2=O)C(=O)N1 (stereo unspecified)",
    "group": "active"
  },
  {
    "compound": "O=C1CCC(N2Cc3cc(NC(=O)c4ccc5ccccc5c4)ccc3C2=O)C(=O)N1 (stereo unspecified)",
    "group": "inactive"
  },
  {
    "compound": "O=C1CCC(N2Cc3cc(NCc4ccc5ccccc5n4)ccc3C2=O)C(=O)N1 (stereo unspecified)",
    "group": "active"
  },
  {
    "compound": "O=C1CCC(N2Cc3cc(NCc4ccc5c(c4)oc4ccccc45)ccc3C2=O)C(=O)N1 (stereo unspecified)",
    "group": "active"
  },
  {
    "compound": "COc1cccc2ccc(CNc3ccc4c(c3)CN(C3CCC(=O)NC3=O)C4=O)cc12 (stereo unspecified)",
    "group": "active"
  }
]

* * *

Target: Cereblon/Ikaros (Homo sapiens) (UniProt Q96SW2+Q13422)
Assay: Protac activity at CRBN/IKZF1 in human MOLM-13 cells at 25 uM incubated for 24 hrs by Western blotting analysis relative to control
Assay type: cell-based
Activity calls are given as the source filed them. The calls are words filed in the database; no cut-off is given here.
Possible outcomes: active, inactive

[
  {
    "molecule": "O=C1CCC(N2Cc3cc(NCc4ccc5cc(F)ccc5c4)ccc3C2=O)C(=O)N1 (stereo not given)",
    "group": "active"
  },
  {
    "molecule": "O=C1CCC(N2Cc3cc(NCc4cccc5c4oc4ccccc45)ccc3C2=O)C(=O)N1 (stereo not given)",
    "group": "active"
  },
  {
    "molecule": "COc1cc(CNc2ccc3c(c2)CN(C2CCC(=O)NC2=O)C3=O)cc2ccccc12 (stereo not given)",
    "group": "active"
  },
  {
    "molecule": "COc1ccc2ccc(CNc3ccc4c(c3)CN(C3CCC(=O)NC3=O)C4=O)cc2c1 (stereo not given)",
    "group": "active"
  },
  {
    "molecule": "O=C1CCC(N2Cc3cc(NCc4ccc5ccncc5c4)ccc3C2=O)C(=O)N1 (stereo not given)",
    "group": "active"
  },
  {
    "molecule": "O=C1CCC(N2Cc3cc(NCc4cccc5cnccc45)ccc3C2=O)C(=O)N1 (stereo not given)",
    "group": "active"
  },
  {
    "molecule": "O=C1CCC(N2C(=O)c3ccc(NCc4ccc5ccccc5c4)cc3C2=O)C(=O)N1 (stereo not given)",
    "group": "inactive"
  },
  {
    "molecule": "O=C1CCC(N2Cc3cc(NCc4cc5ccccc5cn4)ccc3C2=O)C(=O)N1 (stereo not given)",
    "group": "active"
  },
  {
    "molecule": "CN(C)c1ccc2cc(CNc3ccc4c(c3)CN(C3CCC(=O)NC3=O)C4=O)ccc2c1 (stereo not given)",
    "group": "active"
  },
  {
    "molecule": "O=C1CCC(N2Cc3cc(NCc4ccc5ncccc5c4)ccc3C2=O)C(=O)N1 (stereo not given)",
    "group": "active"
  }
]

Measured values drawn from ChEMBL document CHEMBL5375992 for this set.
